// provenance: patent US20220281965A1

# test system: T1, mature recombinant human GDF-15 with an N-terminal Flag and His tag, biotinylated (human, UniProt Q99988 197-308, chemically biotinylated with EZ link Sulfo-NHS-LC-Biotin, sites not stated)
# T1 construct: not shown: N-terminal Flag and His tags
# T1 sequence: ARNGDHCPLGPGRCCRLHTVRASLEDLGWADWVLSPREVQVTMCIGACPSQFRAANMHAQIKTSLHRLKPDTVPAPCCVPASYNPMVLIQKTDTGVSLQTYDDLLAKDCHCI
# assay text: SPR Biacore 8K, 25 C, biotinylated GDF-15 on streptavidin C1 chip, Fab as analyte
measurement label: Kd

The measured Kd associated with AB1170242 Fab (Fab, V domains shown, Fab of the humanized antibody, expressed as in Spooner et al. 2015) VH: QVQLQESGPGLLKPSQTLSLTCTVSGFSLSTYGMGVGWIRQPAGKGLEWLANIWWNDDKYYNSALKSRLTISKDTSKNQVSLKLSSVTAADTAVYYCAQEVYGWFAYWGQGTLVTVSS VL: DIQMTQSPSTLSASVGDRVTITCKASQNVGTNVAWYQQKPGQPPKALIYSASYRYSGVPDRFSGSGSGTDFTLTISSLQAEDVAVYYCQQYNSYPLTFGQGTKLEIK reads 3.22 nM

Entry under test: AB1170245 Fab (Fab, V domains shown, Fab of the humanized antibody, expressed as in Spooner et al. 2015) VH: EVQLVESGGGLVKPGGSLRLSCAASGFTFSSYAMSWVRQAPGKGLEWVAYISSGGDYIYYADTVKGRFTISRDNSKNTLYLQMNSLKTEDTAVYYCTRALVDNAYFDYWGQGTTVTVSS VL: DIVLTQSPDSLAVSLGERATINCRASKSVSTSSYSYMHWYQQKPGQPPKLLIKYASYLEFGVPSRFSGSGSGTDFTLTISSLQPEDVATYYCQHSREFPWTFGGGTKVEIK . Its Kd was 10.2 nM

Entry AB1170241 Fab (Fab, V domains shown, Fab of the humanized antibody, expressed as in Spooner et al. 2015) VH: QVQLVQSGSELKKPGASVKVSCKASGYTFTDYNMDWIRQSPGKGLEWIGDINPNQGGTFYNQKFKDRATLTVDKSTSTAYMELRSLRSDDTAVYYCAREEKLYFGLMDYWGQGTTVTVSS VL: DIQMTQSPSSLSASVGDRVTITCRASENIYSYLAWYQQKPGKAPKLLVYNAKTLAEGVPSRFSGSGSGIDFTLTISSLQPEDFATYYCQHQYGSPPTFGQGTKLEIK ; Kd = 0.159 nM

Form field Kd, entry AB1170247 Fab (Fab, V domains shown, Fab of the humanized antibody, expressed as in Spooner et al. 2015) VH: QVQLVQSGSELKKPGASVKVSCKASGYTFTSYDINWVRQAPGQGLEWIGWIYPRDGISKYNEKFKGRATLTVDTSASTAYMELSSLRSEDTAVYYCAGTYDPAYFDYWGQGTTVTVSS VL: EIVLTQSPATLSVSPGERATLSCRASQSISYYLHWYQQKPGQAPRLLIKYASQSISGVPDRFSGSGSGTDFTLKISRVEAEDFGVYYCQQSNSWPYTFGGGTKVEIK : 9.24 nM
